target: Serine/threonine-protein kinase 10 (Homo sapiens) (UniProt O94804); settings: at 0.1 µM;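 also: mean percent inhibition of LOK (STK10)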
Sequence (O94804 whole entry, looked up): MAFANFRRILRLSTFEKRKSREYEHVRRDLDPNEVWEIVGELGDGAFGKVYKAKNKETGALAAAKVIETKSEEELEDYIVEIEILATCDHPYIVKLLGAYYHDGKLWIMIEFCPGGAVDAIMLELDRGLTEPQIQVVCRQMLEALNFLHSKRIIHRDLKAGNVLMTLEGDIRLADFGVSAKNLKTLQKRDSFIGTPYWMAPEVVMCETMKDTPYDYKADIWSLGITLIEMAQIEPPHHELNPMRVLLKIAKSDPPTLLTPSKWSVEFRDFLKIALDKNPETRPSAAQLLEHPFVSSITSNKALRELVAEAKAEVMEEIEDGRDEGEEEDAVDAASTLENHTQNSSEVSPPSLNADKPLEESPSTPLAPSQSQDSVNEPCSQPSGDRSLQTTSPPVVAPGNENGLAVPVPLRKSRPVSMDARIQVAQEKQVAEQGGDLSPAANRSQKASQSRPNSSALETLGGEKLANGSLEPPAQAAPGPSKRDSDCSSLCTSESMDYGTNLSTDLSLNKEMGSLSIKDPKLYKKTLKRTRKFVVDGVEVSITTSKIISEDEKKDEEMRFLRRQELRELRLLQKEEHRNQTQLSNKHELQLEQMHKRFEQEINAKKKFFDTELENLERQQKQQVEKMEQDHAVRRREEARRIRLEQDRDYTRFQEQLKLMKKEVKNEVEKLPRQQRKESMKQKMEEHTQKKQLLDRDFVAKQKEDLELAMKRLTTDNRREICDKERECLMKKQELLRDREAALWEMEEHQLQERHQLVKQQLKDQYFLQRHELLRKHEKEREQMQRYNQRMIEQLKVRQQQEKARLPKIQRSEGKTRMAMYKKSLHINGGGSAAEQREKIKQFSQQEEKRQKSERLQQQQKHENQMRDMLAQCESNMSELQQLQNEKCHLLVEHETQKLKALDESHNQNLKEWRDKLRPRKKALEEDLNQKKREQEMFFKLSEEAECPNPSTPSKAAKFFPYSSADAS
Assay endpoint: inhibition (%)
Report the value in % with no unit label.

Reference set (6 entries):
>>> print(df.to_string())
                                   compound  numeric_readout
0  CN1CCC(n2cnc(-c3ccc(F)cc3)c2-c2ccnc(Nc3ccccc3)n2)CC1             2.62
1  CCn1c(-c2nonc2N)nc2c(C#CC(C)(C)O)ncc(OC3CCNCC3)c21             3.27
2             COc1ccc(-c2cc3c(N)ncnc3o2)cc1            -1.35
3  CCn1cc(-c2ccnc3[nH]ccc23)c(-c2cccc(NC(=O)Nc3ccc(OCc4ccccc4)cc3)c2)n1             2.56
4  Clc1ccc(-c2nn3ncccc3c2-c2ccnc(Nc3ccccc3)n2)cc1              4.2
5  Nc1nc(-c2cccc(Cl)c2)c(-c2ccc3ncccc3n2)s1              8.2

Query: Give the measured inhibition for Fc1cccc(COc2ccc(Nc3ncnc4sc(-c5ccco5)cc34)cc2Cl)c1
Reply: 9.25

Query: For COc1cccc(-c2c[nH]c3c(N/N=C/c4ccncc4)ncnc23)c1 , write its inhibition.
Reply: 8.9

Query: // fetch inhibition given entry CCn1c(-c2nonc2N)nc2c(C#CC(C)(C)O)nc(OC[C@H](N)c3ccccc3)cc21
Reply: 7.07

Query: For [O-][S+]1CCN(Cc2ccc(-c3ccc4ncnc(Nc5ccc(OCc6cccc(F)c6)c(Cl)c5)c4c3)o2)CC1 , write its inhibition.
Reply: 9.61

Query: Retrieve inhibition measured for COc1cc(N2CCN(C(C)C)CC2)ccc1Nc1nc(Nc2ccc(F)cc2C(N)=O)c2cc[nH]c2n1 and print it.
Reply: 3.31

Query: Give me measured inhibition, please, for this compound: COc1cccc(-n2ncc3c(N/N=C/c4ccc(F)cc4)ncnc32)c1
Reply: 6.75

Query: Recall and state the measured inhibition for COc1ccc2[nH]c3c4[nH]c5ccc(OC)cc5c4c4c(c3c2c1)C(=O)NC4=O .
Reply: 9.72

Query: Please give the documented inhibition of COc1cc2c(cc1Nc1nc(Nc3ccsc3C(N)=O)c3cc[nH]c3n1)N(C(=O)CN(C)C)CCC2(C)C
Reply: 6.3

Query: Look up inhibition of COc1ccc(CNC(=O)c2ccc(-c3cc(-c4nnc(C)o4)ccc3C)cc2)cc1 and report it.
Reply: 13.2

Query: Assign inhibition to the following record: N#Cc1c(NC(=O)CN2CCOCC2)sc2c1CCCC2
Reply: 5.94

Query: Give inhibition for COc1cc(Nc2nccc(Nc3ccc4c(C)n[nH]c4c3)n2)cc(OC)c1OC
Reply: 26.1

###

target: Serine/threonine-protein kinase PAK 3 (Homo sapiens); details: at 0.1 µM;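 also: mean percent inhibition of PAK3, measured in a screen of the GSK published kinase inhibitor set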
Assay endpoint: inhibition (%)
Entry rule: numbers only, all in %.

Worked examples follow.
In [3]: df
Out[3]:
                                   compound  unit_of_measurement  numeric_readout
0  c1ccc(COc2ccc(Nc3ncnc4ccc(-c5ccco5)cc34)cc2)cc1                    %             0.44
1  [O-][S+]1CCN(Cc2ccc(-c3ccc4ncnc(Nc5ccc(OCc6cccc(F)c6)c(Cl)c5)c4c3)o2)CC1                    %             6.22

Query: Retrieve inhibition measured for CN1CCC(n2cnc(-c3ccc(F)cc3)c2-c2ccnc(Nc3ccccc3)n2)CC1 and print it.
Reply: 2.18

Query: Supply inhibition value. Item: CC1=C(C(=O)Nc2cc(Cl)c3[nH]ncc3c2)C(c2ccc(C(F)(F)F)cc2)CC(=O)N1 (stereo not given)
Reply: 4.06

Query: Report inhibition, nothing else, for this compound: CN(C)CCOc1ccc(-c2nc(-c3ccncc3)c(-c3ccc4c(c3)CC/C4=N\O)[nH]2)cc1
Reply: 3.85

###

biological target: Vascular endothelial growth factor receptor 3 (Homo sapiens); settings: at 0.1 µM
Description: GSK_PKIS: FLT4 mean inhibition at 0.1 uM [Nanosyn]
Assay endpoint: inhibition (%)
# output: bare number, implied unit %

Known results for compounds:
>>> df
                                   compound                               system_name  numeric_readout
0          CCc1nn2ncccc2c1-c1ccnc(NC2CC2)n1  Vascular endothelial growth factor receptor 3 (Homo sapiens)             4.93
1  O=C(O[C@H]1CN[C@H](C#Cc2cc3ncnc(Nc4ccc(Cc5ccccc5)cc4)c3s2)C1)N1CCOCC1  Vascular endothelial growth factor receptor 3 (Homo sapiens)            -2.62
2  COc1ccc(-c2oc3ncnc(N)c3c2-c2ccc(NC(=O)Nc3cc(C(F)(F)F)ccc3F)cc2)cc1  Vascular endothelial growth factor receptor 3 (Homo sapiens)             47.4

Query: Provide one value: measured inhibition of NC(=O)c1sc(-n2cnc3ccc(C(F)(F)F)cc32)cc1OCc1ccccc1Br
Reply: -1.7

Query: Query inhibition for CNC(=O)c1cncc(/C=C/c2ccccc2Cl)c1
Reply: 15.2

Query: State, in one line, measured inhibition of c1cc(-c2cnn3nc(N4CCOCC4)ccc23)nc(NC2CC2)n1
Reply: 5.93

Query: Tell me inhibition reported for COc1ccc(-c2nn3ncccc3c2-c2ccnc(Nc3ccc4c(c3)OCCO4)n2)cc1
Reply: 8.62

Query: Write down inhibition measured for item CCNC(=O)O[C@H]1CN[C@H](C#Cc2cc3ncnc(Nc4ccc(OCc5cccc(F)c5)c(Cl)c4)c3s2)C1
Reply: 5.21

Query: Could you please provide reported inhibition for Nc1nc(-c2ccc(F)cc2)c(-c2ccc3ncccc3n2)s1 ? Thanks!
Reply: 4.58

Query: Fill in reported inhibition for this entry: Nc1ncc(-c2cccc(S(N)(=O)=O)c2)c2scc(-c3ccc(F)c(Cl)c3)c12
Reply: 5.73

###

molecular target: G protein-coupled receptor kinase 6 (Homo sapiens); details: at 0.1 µM;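 also: mean percent inhibition of GRK6, GSK PKIS screen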
Reported inhibition is given for each of the following molecules.
Give your result in % as a bare value.

// worked examples, inhibition included
>>> df
                                   molecule  assay_endpoint  numeric_readout
0  COC(=O)Nc1nc2ccc(Oc3ccc(NC(=O)Nc4cccc(Cl)c4)cc3)cc2[nH]1      inhibition            -1.85
1  NC(=O)c1sc(-n2cnc3ccc(C(F)(F)F)cc32)cc1OCc1ccccc1Br      inhibition             5.91
2  CNC(=O)c1cccc(C#Cc2cncnc2Nc2ccc(OCc3cccc(F)c3)c(Cl)c2)c1      inhibition             0.71
3  CNC(=O)c1cc(-c2ccc(F)cc2)cc(-c2ccc(S(=O)(=O)N3CCCC3)cc2)c1N      inhibition             1.55
4  COc1ccc(-c2nn3ncccc3c2-c2ccnc(Nc3ccc4c(c3)OCCO4)n2)cc1      inhibition            -1.91
5    Cc1ccc(O)cc1Nc1ccnc2cc(-c3ccccn3)ccc12      inhibition             1.43
6  CCn1cc(-c2ccnc3[nH]ccc23)c(-c2cccc(NC(=O)Nc3ccc(OCc4ccccc4)cc3)c2)n1      inhibition            -2.36
7       N#Cc1c(NC(=O)c2ccc(F)cc2)sc2c1CCCC2      inhibition             2.85

Query: For the molecule CC1=C(C(=O)Nc2cc(Cl)c3[nH]ncc3c2)C(c2ccc(C(F)(F)F)cc2)CC(=O)N1 (stereo not given) , give its measured inhibition value.
Reply: 4.52

Query: Give inhibition for O=C(O[C@H]1CN[C@H](C#Cc2cc3ncnc(Nc4ccc(Cc5ccccc5)cc4)c3s2)C1)N1CCOCC1
Reply: -0.99

Query: Please indicate inhibition recorded for CS(=O)(=O)CCNCc1coc(-c2ccc3ncnc(Nc4ccc(OCc5ccccc5)cc4)c3c2)c1
Reply: 4.06

###

Reported inhibition values follow for various molecules
target: Mitogen-activated protein kinase 13 (Homo sapiens) (UniProt O15264); conditions: at 1 µM;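 also: mean inhibition of p38delta, screened as part of the GSK PKIS kinase inhibitor set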
Sequence (O15264 whole entry): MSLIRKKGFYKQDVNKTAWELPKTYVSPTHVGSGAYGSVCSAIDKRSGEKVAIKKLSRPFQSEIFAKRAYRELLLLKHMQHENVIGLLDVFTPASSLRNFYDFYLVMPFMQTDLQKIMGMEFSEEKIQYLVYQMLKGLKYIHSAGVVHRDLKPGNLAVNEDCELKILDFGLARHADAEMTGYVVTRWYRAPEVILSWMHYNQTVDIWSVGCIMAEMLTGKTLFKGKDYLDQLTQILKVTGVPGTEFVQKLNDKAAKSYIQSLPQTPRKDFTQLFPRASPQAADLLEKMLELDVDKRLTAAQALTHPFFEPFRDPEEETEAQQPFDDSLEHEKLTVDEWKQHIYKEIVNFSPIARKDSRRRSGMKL
Answer format: numeric, % implied, no suffix.

Query: Return inhibition (reported value) for this molecule: Cc1ccc(O)cc1Nc1ccnc2cc(-c3ccccn3)ccc12
Reply: 2.99

###

molecular target: Dual specificity tyrosine-phosphorylation-regulated kinase 1B (Homo sapiens); details: at 0.1 µM;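 also: values are mean percent inhibition of DYRK1B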
Assay endpoint: inhibition
Answer with the value and then the unit.

Recorded results for 4 molecules are shown here.
In [3]: df
Out[3]:
                                 mol_smiles  assay_endpoint  result
0  COc1ccc2[nH]c3c4[nH]c5ccc(OC)cc5c4c4c(c3c2c1)C(=O)NC4=O      inhibition   2.55%
1  COc1cc(N2CCN(C(C)C)CC2)ccc1Nc1nc(Nc2ccc(F)cc2C(N)=O)c2cc[nH]c2n1      inhibition   49.1%
2  CCOc1ccc2c(-c3ccnc(Nc4cccc(C(F)(F)F)c4)n3)cnn2n1      inhibition   1.37%
3  c1ccc(COc2ccc(Nc3ncnc4ccc(-c5ccco5)cc34)cc2)cc1      inhibition  -0.39%

Now for a further molecule.
Query: Specify reported inhibition for the molecule shown: CCCN1CCC(c2ccc(Nc3nc(Nc4cc(F)ccc4C(N)=O)c4cc[nH]c4n3)c(OC)c2)CC1
Reply: 65.2%

Values from ChEMBL document CHEMBL1961873
